# experimental-system: acetylcholine receptor
# test-details: SPR, receptor immobilised on chip, peptide at 10 µM

[
  {
    "binder": "RLIQKK [6mer-2-492]",
    "scale-unit": "RU",
    "Binding affinity": 148
  },
  {
    "binder": "RWYCRK [6mer-2-515]",
    "scale-unit": "RU",
    "Binding affinity": 123
  },
  {
    "binder": "KRLLKR [6mer-2-533]",
    "scale-unit": "RU",
    "Binding affinity": 142
  },
  {
    "binder": "KGLCRR [6mer-2-498]",
    "scale-unit": "RU",
    "Binding affinity": 127
  },
  {
    "binder": "RGLTRK [6mer-2-504]",
    "scale-unit": "RU",
    "Binding affinity": 154
  },
  {
    "binder": "RGRYKR [6mer-2-523]",
    "scale-unit": "RU",
    "Binding affinity": 146
  },
  {
    "binder": "KRICRR [6mer-2-500]",
    "scale-unit": "RU",
    "Binding affinity": 146
  },
  {
    "binder": "RVLLRK [6mer-2-526]",
    "scale-unit": "RU",
    "Binding affinity": 144
  },
  {
    "binder": "RVQLRR [6mer-2-534]",
    "scale-unit": "RU",
    "Binding affinity": 139
  },
  {
    "binder": "KGVRRK [6mer-2-493]",
    "scale-unit": "RU",
    "Binding affinity": 123
  },
  {
    "binder": "KVIYKR [6mer-2-531]",
    "scale-unit": "RU",
    "Binding affinity": 148
  },
  {
    "binder": "RSFSKR [6mer-2-468]",
    "scale-unit": "RU",
    "Binding affinity": 133
  },
  {
    "binder": "RWQQRR [6mer-2-474]",
    "scale-unit": "RU",
    "Binding affinity": 128
  },
  {
    "binder": "KSYSKK [6mer-2-501]",
    "scale-unit": "RU",
    "Binding affinity": 144
  },
  {
    "binder": "KQYTRK [6mer-2-521]",
    "scale-unit": "RU",
    "Binding affinity": 144
  },
  {
    "binder": "KVYRRK [6mer-2-488]",
    "scale-unit": "RU",
    "Binding affinity": 146
  },
  {
    "binder": "KSYTKR [6mer-2-487]",
    "scale-unit": "RU",
    "Binding affinity": 121
  }
]
